System: RPMI-8226
protocol_details: Antiproliferative activity against human RPMI8226 cells
Format: functional
property_measured: GI50

Examples with answers:
Return the recorded GI50 value; entry: COc1ccc(-c2cn(-c3ccc(Cl)cc3)c(=S)[nH]2)cc1OC 3.98 µM

Return the recorded GI50 value; entry: COc1cc(-c2cn(-c3ccc(Cl)cc3)c(=O)[nH]2)cc(OC)c1OC > 100 µM

Return the recorded GI50 value; entry: COc1ccc(-c2cn(-c3ccc(OC)c(OC)c3)c(=O)[nH]2)cc1 > 100 µM

Return the recorded GI50 value; entry: COc1ccc(-n2cc(-c3cc(OC)c(OC)c(OC)c3)[nH]c2=S)cc1OC > 100 µM

Return the recorded GI50 value; entry: COc1ccc(/C=C\c2cc(OC)c(OC)c(OC)c2)cc1O [COMBRETASTATIN A4] 0.158 µM

Further cases:
Return the recorded GI50 value; entry: COc1ccc(-n2cc(-c3ccc(Cl)cc3)[nH]c2=S)cc1Cl 50.1 µM

Return the recorded GI50 value; entry: COc1ccc(-n2cc(-c3cc(OC)c(OC)c(OC)c3)[nH]c2=O)cc1Cl > 100 µM

Return the recorded GI50 value; entry: COc1cc(-n2cc(-c3ccccc3)[nH]c2=O)cc(OC)c1OC > 100 µM

Return the recorded GI50 value; entry: COc1ccc(-n2cc(-c3ccc(OC)c(OC)c3)[nH]c2=S)cc1Cl > 100 µM
